TARGET OR SYSTEM: T1, AnkB_MBD (AnkB ANK repeats only, aa 28–827) (human, UniProt Q01484-2 28-827)
T1 chain: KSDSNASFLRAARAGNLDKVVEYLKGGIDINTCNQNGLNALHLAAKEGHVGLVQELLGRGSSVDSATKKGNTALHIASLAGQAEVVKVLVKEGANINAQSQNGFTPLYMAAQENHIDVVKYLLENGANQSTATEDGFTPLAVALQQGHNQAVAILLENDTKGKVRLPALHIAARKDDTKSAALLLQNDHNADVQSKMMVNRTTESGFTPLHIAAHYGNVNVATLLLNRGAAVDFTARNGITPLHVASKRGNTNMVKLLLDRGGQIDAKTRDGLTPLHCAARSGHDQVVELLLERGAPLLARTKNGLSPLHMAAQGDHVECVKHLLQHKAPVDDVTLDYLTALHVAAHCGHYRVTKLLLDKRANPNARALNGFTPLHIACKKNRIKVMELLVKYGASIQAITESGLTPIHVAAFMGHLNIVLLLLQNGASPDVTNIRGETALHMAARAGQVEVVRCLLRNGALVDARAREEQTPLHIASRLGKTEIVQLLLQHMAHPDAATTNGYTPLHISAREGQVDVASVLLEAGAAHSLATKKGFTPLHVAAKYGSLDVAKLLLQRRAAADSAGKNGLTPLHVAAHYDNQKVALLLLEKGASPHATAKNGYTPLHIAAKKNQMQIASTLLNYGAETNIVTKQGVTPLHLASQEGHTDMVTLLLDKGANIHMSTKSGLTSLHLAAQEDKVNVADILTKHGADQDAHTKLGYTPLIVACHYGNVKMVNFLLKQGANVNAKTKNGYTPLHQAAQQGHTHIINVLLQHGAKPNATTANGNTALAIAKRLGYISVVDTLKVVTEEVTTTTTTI
TEST DETAILS: ITC
RESULT TYPE: pKd
A value of pKd is the negative decimal logarithm of a concentration given in moles per litre.

Request the reported pKd associated with TEKHKLKVPETMTEVLDVSDEEGDD (domain or fragment) [AnkB_AI-c Asn834Lys]
5.57

TEKHKLNVPETMTEVQDVSDEEGDD (domain or fragment) [AnkB_AI-c Leu843Gln] ?
5.41

TEKHKLNVPETQTEVLDVSDEEGDD (domain or fragment) [AnkB_AI-c Met839Gln] ?
5.36

TEKHKLNVPETMTEVLDVSDEEGDD (domain or fragment) [AnkB_AI-c (aa 828–852)] ?
6.44
